The reported numbers originate from the Immune Epitope Database (IEDB).

Target: HLA-A*66:01
Test: IEDB peptide-MHC binding, purified MHC/competitive/radioactivity; filed as Kd, often an IC50 or EC50 that approximates it; bounds were set here for any values at or beyond the usual limits of such assays
Conditions: source organism: Mus musculus
pKd: −log10 of the molar value.

{"CHAIN": "TLALEVARQK", "pKd": "≤ 4.30"}

----------
Biological target: HLA-B*07:02
Assay: IEDB peptide-MHC binding, purified MHC/competitive/radioactivity; bounds were set here for any values at or beyond the usual limits of such assays
Details: source organism: Mus musculus
pIC50: −log10 of the molar value.
MEASURED_PARAMETER: pIC50

{"CHAIN": "SPGDLQTLAL", "RESULT_NUMBER": 8.36}

----------
Molecular target: HLA-A*11:01
Assay: IEDB peptide-MHC binding, purified MHC/competitive/radioactivity; bounds were set here for any values at or beyond the usual limits of such assays
Settings: source organism: Homo sapiens
pIC50: −log10 of the molar value.
Catalogue of sequences with associated pIC50
MEASURED_PARAMETER: pIC50

{"CHAIN": "PLALEGSLQ", "TEST_TARGET": "HLA-A*11:01", "RESULT_NUMBER": 4.43}
{"CHAIN": "LALEGSLQKR", "TEST_TARGET": "HLA-A*11:01", "RESULT_NUMBER": 4.46}

----------
Molecular target: HLA-A*33:01
Test: IEDB peptide-MHC binding, purified MHC/competitive/radioactivity; filed as Kd, often an IC50 or EC50 that approximates it; bounds were set here for any values at or beyond the usual limits of such assays
Conditions: source organism: Homo sapiens

{"CHAIN": "PLALEGSLQ", "Kd": "≥ 50 µM"}

----------
Catalogue of sequences with associated IC50
Target: HLA-A*66:01
Assay: IEDB peptide-MHC binding, purified MHC/competitive/radioactivity; bounds were set here for any values at or beyond the usual limits of such assays
Settings: source organism: Homo sapiens
MEASURED_PARAMETER: IC50 (µM)

{"CHAIN": "PLALEGSLQ", "UNIT_INFO": "µM", "RESULT_NUMBER": 48.5}
{"CHAIN": "LALEGSLQKR", "UNIT_INFO": "µM", "RESULT_NUMBER": 0.515}

----------
Target: HLA-B*35:03
Test: IEDB peptide-MHC binding, purified MHC/competitive/radioactivity; bounds were set here for any values at or beyond the usual limits of such assays
Conditions: source organism: Mus musculus
MEASURED_PARAMETER: IC50 (µM)

{"CHAIN": "SPGDLQTLAL", "RESULT_NUMBER": 16.1}

----------
Biological target: HLA-A*66:01
Assay: IEDB peptide-MHC binding, purified MHC/competitive/radioactivity; bounds were set here for any values at or beyond the usual limits of such assays
Conditions: source organism: Mus musculus
MEASURED_PARAMETER: IC50

{"CHAIN": "AINSEMFLR", "MEASURED_PARAMETER": "IC50", "RESULT": "4.55 µM"}
{"CHAIN": "LALEVARQKR", "MEASURED_PARAMETER": "IC50", "RESULT": "13 µM"}

----------
Molecular target: HLA-B*53:01
Assay: IEDB peptide-MHC binding, purified MHC/competitive/radioactivity; bounds were set here for any values at or beyond the usual limits of such assays
Details: source organism: Homo sapiens

{"CHAIN": "GPGAGSLQPLAL", "TEST_TARGET": "HLA-B*53:01", "IC50": "15.5 µM"}
